pEC50 values, listed per item
Subject Of Test: human GPR120 (Homo sapiens, UniProt Q5NUL3)
Sequence (Q5NUL3 whole entry): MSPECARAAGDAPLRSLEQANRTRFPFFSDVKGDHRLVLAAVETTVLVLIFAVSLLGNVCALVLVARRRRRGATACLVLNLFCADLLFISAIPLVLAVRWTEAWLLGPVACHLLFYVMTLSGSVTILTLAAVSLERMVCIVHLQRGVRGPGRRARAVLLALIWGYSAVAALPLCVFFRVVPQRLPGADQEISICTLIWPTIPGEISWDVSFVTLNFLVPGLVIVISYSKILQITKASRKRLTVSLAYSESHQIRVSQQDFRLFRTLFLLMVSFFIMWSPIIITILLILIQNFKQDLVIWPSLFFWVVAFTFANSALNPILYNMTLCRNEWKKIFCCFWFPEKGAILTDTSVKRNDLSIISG
Method: Human GPR120 IP1 assay (inositol phosphate turnover)
Experimental Setup: IP1 accumulation in CHO-K1 cells stably expressing the short form of human GPR120
pEC50: −log10 of the molar value.

Compound	pEC50
Oc1cc(-c2cnc(O[C@H]3C[C@@H](c4ccc(C5CC5)cc4)C3)cn2)on1 [Example 20]	7.38
Oc1cc(-c2ccc(O[C@H]3C[C@@H](COc4ccccc4)C3)nc2)on1 [Example 82]	8.15
Oc1cc(-c2cnc(O[C@H]3C[C@@H](c4ccc(Cl)cc4)C3)cn2)on1 [Example 38]	7.77
Oc1cc(-c2cnc(O[C@H]3C[C@@H](c4ccnc(OC5CC5)c4)C3)cn2)on1 [Example 34]	7.60

---

Subject Of Test: human GPR120 (Homo sapiens)
Method: Human GPR120 IP1 assay (inositol phosphate turnover)
Experimental Setup: IP1 accumulation in CHO-K1 cells stably expressing the short form of human GPR120
pEC50: −log10 of the molar value.
Known pEC50 of a selection of compounds

Compound	pEC50
Oc1cc(-c2cnc(O[C@H]3C[C@@H](c4ccc(Cl)cc4)C3)nc2)on1 [Example 109]	7.96
Oc1cc(-c2cnc(O[C@H]3C[C@@H](c4cc(OC5CC5)ccc4F)C3)cn2)on1 [Example 39]	7.32
Oc1cc(-c2ccc(OC3CC(OCc4cc(F)ccc4C(F)(F)F)C3)nc2)on1 (mixture of isomers) [Example 76]	6.86
CCc1ccc([C@H]2C[C@@H](Oc3ccc(-c4onc(O)c4F)cn3)C2)cc1 [Example 13]	6.74

---

Readings of EC50 for the listed compounds
Subject Of Test: human GPR120 (Homo sapiens)
Method: Human GPR120 IP1 assay (inositol phosphate turnover)
Experimental Setup: IP1 accumulation in CHO-K1 cells stably expressing the short form of human GPR120
Structures can show the parent of a compound that is named as a salt.

Compound	Value Unit	EC50
Oc1cc(-c2cnc(O[C@H]3C[C@@H](c4ccc(C(F)(F)F)cc4)C3)cn2)on1 [Example 55]	µM	0.011
Oc1cc(-c2cnc(O[C@H]3C[C@@](F)(c4cc(OC(F)(F)F)ccc4F)C3)cn2)on1 (single isomer, unassigned) [Example 89]	µM	0.051
Oc1cc(-c2cnc(O[C@H]3C[C@@H](c4ccc(OC(F)(F)F)cn4)C3)cn2)on1 [Example 26]	µM	0.086
Oc1cc(-c2ccc(O[C@H]3C[C@@H](OCc4ccc(F)c(F)c4)C3)nc2)on1 [Example 62, trifluoroacetate]	µM	0.04
Cc1ccc([C@H]2C[C@@H](Oc3ncc(-c4cc(O)no4)cn3)C2)c(F)c1 [Example 114]	µM	0.191
Oc1cc(-c2cnc(O[C@H]3C[C@@H](c4cccc5ccccc54)C3)cn2)on1 [Example 43]	µM	0.13
Oc1cc(-c2ccc(OC3CC(c4ccc(C5CC5)cc4)C3)nc2)on1 (stereo not shown) [Example 15]	µM	0.041
Oc1cc(-c2ccc(OC3CC(c4ccc(F)cc4)C3)nc2)on1 (stereo not shown) [Example 35, trifluoroacetate]	µM	0.01
Oc1cc(-c2cnc(O[C@H]3C[C@@H](c4nc(C(F)(F)F)cs4)C3)cn2)on1 [Example 5]	µM	0.082
Oc1cc(-c2ccc(O[C@H]3C[C@H](c4ncc(C(F)(F)F)cc4F)C3)nc2)on1 [Example 8]	µM	0.303
Oc1cc(-c2ccc(O[C@H]3C[C@@H](c4ncc(C(F)(F)F)cc4F)C3)nc2)on1 [Example 9]	µM	0.023
CC(C)Oc1cc([C@]2(F)C[C@@H](Oc3ccc(-c4cc(O)no4)cn3)C2)ccn1 [Example 99]	µM	0.017
Oc1cc(-c2cnc(O[C@H]3C[C@@H](c4ccc(OC(F)(F)F)cc4)C3)cn2)on1 [Example 56]	µM	0.049
Oc1cc(-c2cnc(O[C@H]3C[C@@H](c4cc(F)cc(OC(F)(F)F)c4)C3)cn2)on1 [Example 3]	µM	0.102
Oc1cc(-c2cnc(O[C@H]3C[C@@H](c4ccc(F)c(C(F)F)c4)C3)cn2)on1 [Example 45]	µM	0.024
Oc1cc(-c2cnc(O[C@H]3C[C@@](F)(c4nc5ccccc5s4)C3)cn2)on1 [Example 105]	µM	0.237
Oc1cc(-c2ccc(OC3CCC(c4cccc(OC(F)(F)F)c4)C3)nc2)on1 (single isomer, unassigned) [Example 118]	µM	0.034
Oc1cc(-c2ccc(OC3CC(OCc4ccc(F)cc4F)C3)nc2)on1 (mixture of isomers) [Example 72]	µM	0.029
N#Cc1cccc(COC2CC(Oc3ccc(-c4cc(O)no4)cn3)C2)c1 (mixture of isomers) [Example 73]	µM	0.166
CC1[C@@H](Oc2cnc(-c3cc(O)no3)cn2)C[C@H]1c1ccccc1 (stereo partly shown) [Example 92]	µM	0.017
Cc1nc(C(F)(F)F)c(CO[C@H]2C[C@@H](Oc3ccc(-c4cc(O)no4)cn3)C2)s1 [Example 75, trifluoroacetate]	µM	0.149
CCOc1cc([C@H]2C[C@H](Oc3cnc(-c4cc(O)no4)cn3)C2)ccn1 [Example 27]	µM	0.177
Oc1cc(-c2cnc(O[C@H]3C[C@@H](c4c(F)cc(OC(F)F)cc4F)C3)cn2)on1 [Example 50]	µM	0.023
CC(OC1CC(Oc2ccc(-c3cc(O)no3)cn2)C1)c1ccccc1 (mixture of isomers) [Example 78]	µM	0.305
Cc1cc(F)c([C@H]2C[C@@H](Oc3cnc(-c4cc(O)no4)cn3)C2)c(F)c1 [Example 51]	µM	0.016
Oc1cc(-c2cnc(O[C@H]3C[C@@H](c4ccc(-c5cnco5)cc4)C3)cn2)on1 [Example 16]	µM	0.064
Oc1cc(-c2cnc(O[C@H]3C[C@@H](c4ncc(C(F)(F)F)s4)C3)cn2)on1 [Example 6]	µM	0.129
Oc1cc(-c2cnc(O[C@H]3C[C@H](c4ccc(C5CC(F)(F)C5)cc4)C3)cn2)on1 [Example 29]	µM	0.171
Oc1cc(-c2cnc(O[C@H]3C[C@@](F)(c4cc(C(F)(F)F)ccc4F)C3)cn2)on1 [Example 107]	µM	0.215
CC(C)Oc1cc([C@]2(F)C[C@H](Oc3cnc(-c4cc(O)no4)cn3)C2)ccn1 [Example 101]	µM	0.538
Cc1ccc([C@H]2C[C@@H](Oc3cnc(-c4cc(O)no4)cn3)C2)c(F)c1 [Example 46]	µM	0.036
